- System: ERα (Homo sapiens, UniProt P03372)
- Sequence (P03372 1-595): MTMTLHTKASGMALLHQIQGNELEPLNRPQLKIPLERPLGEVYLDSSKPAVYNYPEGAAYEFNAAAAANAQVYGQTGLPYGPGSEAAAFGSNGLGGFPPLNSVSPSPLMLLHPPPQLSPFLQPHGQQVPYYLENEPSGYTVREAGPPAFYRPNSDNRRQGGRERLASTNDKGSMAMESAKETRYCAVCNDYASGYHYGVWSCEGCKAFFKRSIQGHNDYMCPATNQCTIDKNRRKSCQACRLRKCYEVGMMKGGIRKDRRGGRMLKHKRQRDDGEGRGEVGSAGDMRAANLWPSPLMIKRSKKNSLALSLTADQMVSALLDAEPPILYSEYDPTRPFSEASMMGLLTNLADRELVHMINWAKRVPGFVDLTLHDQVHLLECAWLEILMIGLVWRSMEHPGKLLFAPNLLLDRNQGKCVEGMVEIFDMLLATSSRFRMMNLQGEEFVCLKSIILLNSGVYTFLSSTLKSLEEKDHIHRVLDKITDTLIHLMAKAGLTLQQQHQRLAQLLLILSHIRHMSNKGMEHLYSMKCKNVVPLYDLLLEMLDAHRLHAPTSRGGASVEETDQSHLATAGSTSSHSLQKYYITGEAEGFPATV
- Experiment: Phage ELISA / fingerprint on ER immobilized on biotinylated ERE (Examples 2.3-2.5)
- Type: binding
- Design: purchased PanVera Corporation, Madison, WI; key: semiquantitative scale of 0 to 7+; 1+: semiquantitative scale of 0 to 7+; 2+: semiquantitative scale of 0 to 7+; 3+: semiquantitative scale of 0 to 7+; 4+: semiquantitative scale of 0 to 7+; 5+: semiquantitative scale of 0 to 7+; 6+: semiquantitative scale of 0 to 7+; semiquantitative scale of 0 to 7+
- Test conditions: ERα and tamoxifen (4-OH tamoxifen, 1 µM)

Sequence content | binding activity, ERα and tamoxifen
SSPTGHRLLESLLLNSNSR [Peptide 8E-β] | 3+
SSTTMFDFFYERLSR [Peptide 6t-β] | 6+
SSSMMREFFERELSR [Peptide 5b-β] | 7+
SSGPFYVGGMLWPADCLSR [Peptide 10t-β] | 6+
SRMFQVCGDEVCLRSR [Peptide 16t-β] | 7+
SSSGPWRWGLSIESR [Peptide 17b-β] | 3+
SSRLVPHSFWLDGLMHGSR [Peptide 21t-β] | 6+
SSLDLSQFPMTASFLRESR [Peptide 35E-β] | 2+
SSGPWLMHYLGGGSR [Peptide 7b-β] | 3+
SSVASREWWVRELSR [Peptide 15t-β] | 5+
SSDTRSRLYELLSSSYTSR [Peptide 5E-β] | 4+
SSDLYSQMREFFQINLSR [Peptide 23t-β] | 6+
SSTRLMCWLGSADTSHCSR [Peptide 28E-β] | 3+
SREGWMGPWRLADSR [Peptide 12t-β] | 1+
SSIPPRSWWLSQLSR [Peptide 19b-β] | 4+
SRDWRSGFLYELLSR [Peptide 4E-β] | 6+
SRLPPSVFSMCGSEVCLSR [Peptide 9t-β] | 6+
SREGLLMRLLIGDSR [Peptide 14E-β] | 5+
SRLEDLLRGDSKPQSR [Peptide 7E-β] | 3+
SSKLYCLLDESYCSR [Peptide 21b-β] | 3+
SSGLPPNFERMLKSR [Peptide 6b-β] | 3+
SSWDFRVPWWYNNSR [Peptide 31E-β] | 3+
SSARPWWLQFEGSSR [Peptide 7t-β] | 2+
SSRCSSLLCEMLIQTKESR [Peptide 22E-β] | 3+
SSISTYHMGEWFYAMLSSR [Peptide 22t-β] | 6+
SSTTWRCPEWYCGSR [Peptide 30E-β] | 3+
SSYDWQCPSWYCPAPPSSR [Peptide 29E-β] | 3+
SSRGLLWDLLTKDSR [Peptide 1E-β] | 5+
SRLHDLLLRDESPSR [Peptide 3E-β] | 4+
SSQWQAPWWYIDASR [Peptide 32E-β] | 4+
SSRTPILFSLLETSR [Peptide 11E-β] | 6+
SRHGILWDLLQGDSR [Peptide 2E-β] | 5+
SRWWLDDHELLLYSSR [Peptide 26E-β] | 5+

// data source = patent EP1073891B1
